Recorded sessile MIC + LMS by entry
Tested on: Pseudomonas aeruginosa
Assay Method Text: MBEC assay: sessile (biofilm) MIC of antibiotics in absence and presence of LMS-611
Assay type: cell-based
Cond: PA strain YH1; in presence of LMS-611 (10 mg/mL)
Express the result in µg/mL but write the number alone.

C[C@@H](O)[C@H]1C(=O)N2C(C(=O)O)=C(S[C@@H]3CN[C@H](C(=O)N(C)C)C3)[C@H](C)[C@H]12 :: 1000
C[C@H]1[C@H](NC(=O)/C(=N\OC(C)(C)C(=O)O)c2csc(N)n2)C(=O)N1S(=O)(=O)O :: 1000
NC[C@H]1O[C@H](O[C@H]2[C@H](O)[C@@H](O[C@H]3O[C@H](CO)[C@@H](O)[C@H](N)[C@H]3O)[C@H](N)C[C@@H]2N)[C@H](N)C[C@@H]1O :: 500

Problem: Given the compound CCN1CCN(C(=O)N[C@@H](C(=O)N[C@@H]2C(=O)N3[C@@H]2SC(C)(C)[C@@H]3C(=O)O)c2ccccc2)C(=O)C1=O , write its reported sessile MIC + LMS.
Result: 1000

All values here come from patent US20180169145A1.
